# Organism: Felis catus
# PROTOCOL_TEXT: Potency relative to apomorphine.
# Assay type: functional
MEASURED_QUANTITY: Relative potency
Answers are plain numbers.

Give measured Relative potency for every item shown.
1. Br.CN(C)C1CCc2c(O)cc(O)cc2C1 (stereo not given)
2. Br.CCNC1CCc2c(O)cc(O)cc2C1 (stereo not given)
3. CN1CCc2cccc3c2[C@H]1Cc1ccc(O)c(O)c1-3 [APOMORPHINE]
4. Br.CCN(CC)C1CCc2c(O)cc(O)cc2C1 (stereo not given)
5. Br.CCCN(CCC)C1CCc2c(O)cc(O)cc2C1 (stereo not given)

[A]
1. 1.45
2. 1.04
3. 1
4. 1.4
5. 0.95
